Biological target: T1, recombinant human CTLA4-his protein (Acro biosystems, Cat#CT4-H5229) (human, UniProt P16410 37-162)
T1 construct: bought recombinant protein; not shown: his tag
T1 sequence (looked up): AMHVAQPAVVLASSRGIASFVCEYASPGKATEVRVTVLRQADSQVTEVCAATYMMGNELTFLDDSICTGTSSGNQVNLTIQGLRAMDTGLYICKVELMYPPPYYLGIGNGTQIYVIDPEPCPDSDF
Assay: SPR, Biacore T200; antibody captured, CTLA4-his as analyte
I'd appreciate it if you could supply kon values for the items below.
Numbers only, in M⁻¹ s⁻¹.

mouse anti-CTLA4 monoclonal antibody D1B6 (antibody, V domains shown, mouse mAb purified from hybridoma supernatant) VH: EVQLQQSGPELVKPGASVKLSCKASGNTFTTYVLNWVKQKPGQGLEWIGYFNPYNDGIKYNEKFKGKATLTSDKSSNTAYMELSSLTSEDSAVYYCARFEGGGYAMDYWGQGTSVTVSS VL: DIVLTQSPASLAVSLGQRATISCRASQSVGTSRNTYIHWYQQKLGQPPKLLIKYASDLESGVPARFSGSGSGTDFTLNIHPVEEEDTATYYCQHSWEIPYTFGGGTKLEIK    65400
mouse anti-CTLA4 monoclonal antibody D1H3 (antibody, V domains shown, mouse mAb purified from hybridoma supernatant) VH: QVQLQQPGAELVNPGASVKLSCKASGYTFTSYWLHWVKQRPGRGLEWIGRIDPNRGTIYYNEKFNNKATVTVDKPSNTAYMQLSRLTLEDSAVYYCARGGSNFYAMDYWGQGTSVTVSS VL: DIQMTQSPASLSASVGETVTITCRTSENIYSYLAWYQQKQGESPQLLVYNAKTLAEGVPSRFSGSGSGTQFSLKINSLQPEDFGSYYCQNHDGIPFTFGSGTKLEIK    224000

Return reported kon values for all items listed beneath this line.
1. mouse anti-CTLA4 monoclonal antibody D2A4 (antibody, V domains shown, mouse mAb purified from hybridoma supernatant) VH: QVQLQQPGAELVKPGSSVNLSCKASGYTFTSYWVHWVKQGPGRGLEWIGRIDPNRGGTYYNENFKTKAALTVDSPSSTAYMHLSSLTSEDSAVYYCARGGLNYYALDYWGQGTSVTVSS VL: DIQMTQSPASLFASLGETVTITCRASENIYSYLAWYQQKQGKSPQLLVYNANTLTEGVPSSFSGSGSGTQFSLKINTLQPEDFGTYYCQHHYGIPFTFGSGTKLEIK
2. mouse anti-CTLA4 monoclonal antibody D1D5 (antibody, V domains shown, mouse mAb purified from hybridoma supernatant) VH: EVKLVESGGGLVKPGGSLKLSCAASGFTFSDYGMAWVRQAPGKGPEWVAFISNLAYSVYYADTETGRFTISREDAKNTLYLEMSSLRSEDTAMYYCARSGLPYAMDYWGQGTSVTVSS VL: DIQMTQTTSSLSASLGDRVTISCRASQDISNYLNWYQQKPDGTVKLLIYYISRLHSGVPSRFSGSGSGTDFSLTISNLEQEDIATYFCQQGRMLPWTFGGGTRLEIK
3. mouse anti-CTLA4 monoclonal antibody D1H4 (antibody, V domains shown, mouse mAb purified from hybridoma supernatant) VH: EVQLQQSGPVLVKPGASVKMSCKASGYTFTDYYMNWVKQSHGKSLEWIGAINPDHGGSSYNQKFKGKATLTVDKSSSTAYMELNSLTSEDSAVYYCARDGSIHYVMDDWGQGTSVTVSS VL: DIVMSQSPSSLTVSAGDKVTMSCKSSQSLLHSGNQKNYLAWYQQKPWQPPKLLIYGASTRESGVPDRFTGSGSGTDFTLTISSVQAEDLAVYYCQNDYGYPYTFGGGTKLEIK

1. 671000
2. 146000
3. 346000

Reference for the values: patent US20230212304A1
